System: MS2 coat protein
Experiment: apparent KD of MS2 coat protein; designed switch direction (-1 OFF switch, 1 ON switch): -1; higher = weaker reporter binding
Conditions: input ligand: none
# binarize apparent KD of MS2 coat protein: threshold 100 nM inclusive, high side t, low side f

Incoming: Test whether the sequence GUUAUGUCAGGAUAUGCUAAUGAUGAGUGAUCAGACAUGAUGUAGAAGGGACAUGAGGAUCACCCAUGUAAUAU [EX4 #8] (Eterna round: R97, puzzle: Exclusion 4) records apparent KD of MS2 coat protein of 100 nM or higher.
Outgoing: t

Incoming: Is it the case that CGUCUGUAAGGAUAUGGUUACAUAGACAUGAGGAUCACCCAUGUGACGUGGGACUAGUGAUUAGAAGGUACGAACG [EX5 #66] (Eterna round: R97, puzzle: Exclusion 5) has apparent KD of MS2 coat protein reaching or exceeding 100 nM?
Outgoing: f

Incoming: Record CCCGAGCUAGGAUAUGCACAAGGUAUCGAUCCACAACACACACAUGAGGAUCACCCAUGUAGAAGGAGCAUCGU [Eternabot (L2) Solution 27] (Eterna round: R97, puzzle: Exclusion 2) ; criterion: apparent KD of MS2 coat protein no lower than 100 nM. Met?
Outgoing: f

Incoming: Exam item: decide whether the reported apparent KD of MS2 coat protein for UUGACGUCGUCAGGAUAUAGUUUUAAUGUCAUGCGUAUGUUCUUACAUGAGGAUCACCCAUGUCGCUAGAAGGGACUAAAGAUU [JR_ExcNG2_Sub011] (Eterna round: R96, puzzle: Exclusion NG 2) is at least 100 nM.
Outgoing: f

* * *

Test system: MS2 coat protein
Test: apparent KD of MS2 coat protein; designed switch direction (-1 OFF switch, 1 ON switch): -1; higher = weaker reporter binding
Conditions: input ligand: none
Exercise: state measured apparent KD of MS2 coat protein for each of the sequences provided.
Report the figure in nM without appending any unit label.

Incoming: Identify apparent KD of MS2 coat protein associated with the sequence GUUUGACAUGAGGAUCACCCAUGUGAGGAUAUACGAUUAGCUGCUAGGUAGUUAGUAUGUAGAAGGUGCGUGUU [EX1 #69] (Eterna round: R97, puzzle: Exclusion 1)
Outgoing: 117

Incoming: Please report apparent KD of MS2 coat protein for the following sequence: UAAAGAUAAGGAUAUUGAAGGUUCGACAUGAGGAUCACCCAUGUUAUGUUGGAAAAGGGACAAGAAGGUAUGAAAU [salish99_ex5_r4_207] (Eterna round: R97, puzzle: Exclusion 5)
Outgoing: 37

Incoming: Quote apparent KD of MS2 coat protein reported for ACAUGAGGAUCACCCAUGUCUGGCUGGUCUGCUCCGGCUGUUGAGGAUAUAGUCCGGUGUUCGCGCUAGAAGGUGAGGGCUGGA [Aenatbe mod 41] (Eterna round: R96, puzzle: Exclusion NG 3) please.
Outgoing: 77.3

* * *

Test system: MS2 coat protein
Test: apparent KD of MS2 coat protein, switch OFF state (with FMN for OFF switches, without FMN for ON switches); designed switch direction (-1 OFF switch, 1 ON switch): 1; higher = weaker reporter binding
Conditions: FMN input: 0 or 200 uM; Eterna round: R93 (includes R88 designs)
value.type: apparent KD of MS2 coat protein (nM)
Report the figure in nM without appending any unit label.

Incoming: Let me know recorded apparent KD of MS2 coat protein for AGAAGACAUGAGGAUCACCCAUGUAGGAAUAUGGGAGGAUAUACAAAGACGAAAGUCAGAGUAGAAGGCCUAGGAA [salish99-SS1-090] , thanks.
Outgoing: 53

Incoming: Specify reported apparent KD of MS2 coat protein for the sequence shown: AGAAAUAAAAGAGAGGAUAUUCAAAAGAAAACAUGAGGAUCACCCAUGUAAAAGAAAAUAAAUGGGAAGAAGGCUCAAAAUAAAG [Modifying JL's highscorer - Moving the G segment - Variant 2]
Outgoing: 26.2

Incoming: // fetch apparent KD of MS2 coat protein given entry AAUAUACAUGAGGAUCACCCAUGUUAGGUGGGACUAGGAUAUCAAAAUAAAUAAUGAACAUGAGAAGGAGUAUCAA [JR_SS001_Sub402]
Outgoing: 190

Incoming: Using the record for AAAGACAUGGUGUAGGAUAUAUUAAUAGUCACAUGAGGAUCACCCAUGUUCAUAUAUAUGAACGAGUAGAAGGACGAUGAAAAAA [SameState2 Malc#3] , state its measured apparent KD of MS2 coat protein.
Outgoing: 205

Incoming: Given the sequence GAAAAACAUGAGGAUCACCCAUGUGGAAAUAUGGAAGGAUAUACAAAGACGAGAGUCAAAGUAGAAGGUCUAAAAG [Mat - Same State 1 - Eli mod - D20] , write its reported apparent KD of MS2 coat protein.
Outgoing: 26.3

Incoming: Read the entry UGGAGACAUGAGGAUCACCCAUGUGAGAAGAGGCGAGGAUAUCGAAAGAAAGAAGAGAAACGAGAAGGCGCGAGCC [salish99-SS1-048] and write its reported apparent KD of MS2 coat protein.
Outgoing: 49.9
